Numbers sourced from ChEMBL document CHEMBL1201862.

# Tested on: CAKI-1
# test summary: NCI tumour cell line growth inhibition, 48 h
The source made the active and inactive calls. No stated cut-off is given here; in the data, active = GI50 up to about 1.1 µM and inactive = higher.
The reply should name one outcome from active, inactive

Would you please look over these solved cases?
INSERT INTO assay_data (molecule, class_label) VALUES
  ('C/C(CN1C(=O)c2ccccc2C1=O)=N\NS(C)(=O)=O', 'inactive'),
  ('COc1ccc2c(c1OC)C1=C(C2=O)c2cc3c(cc2CCN1)OCO3', 'inactive'),
  ('C[Si](C)(C)c1ccc(-c2c3ccc(-c4cc(Br)cc(Br)c4)nc3nc3nc(-c4cc(Br)cc(Br)c4)ccc23)cc1', 'inactive'),
  ('CCCC12Cc3c(OC)ccc(OC)c3CC(Cc3c(OC)ccc(OC)c31)C2=O (stereo not given)', 'inactive'),
  ('Brc1ccc2c(c1)C1(c3cc(Br)ccc3-2)c2cc(Br)ccc2-c2ccc(Br)cc21', 'inactive');

Hello, I am checking results. What call was entered for `COC(=O)[C@@H]1[C@H]2CC[C@]3(C)[C@@H](OC(C)=O)CC[C@H]3[C@@H]2CC[C@H]1C1(C)SCCS1` ?
inactive

What classification did CC1C[C@]2(C[C@@H](C)C(=O)O2)OC2CC3(C)C4CCC5C(C)(C)OC(=O)CC[C@@]56C[C@@]46CC[C@]3(C)C12 (stereo not given in full) end up with in this test?
inactive

Called result for `CC(CCc1nc2ccccc2s1)(c1ccc(O)cc1)c1ccc(O)cc1`
inactive

Recorded test call requested for COc1cc(/C=C2\C(=O)N(Cc3ccccc3)C(c3ccccc3)S2(=O)=O)cc(OC)c1OC (stereo not given)
inactive

###

# System: OVCAR-8
# test summary: NCI tumour cell line growth inhibition, 48 h
Calls of active or inactive are those of the source. No stated cut-off is given here; in the data, active = GI50 up to about 1.1 µM and inactive = higher.
Thanks in advance; please answer with one of these: active, inactive

INSERT INTO results (molecule, class_label) VALUES
  ('COc1cc(C)cc2c1C(=O)C(NC(C)=O)=CC2=O', 'inactive'),
  ('CC1(C)CC2C(/C1=N/O)C1(C)CCCC2(C)C1O (stereo unspecified)', 'inactive'),
  ('O=C(c1ccccc1)N1CCc2c([nH]c3ccccc23)C1', 'inactive'),
  ('COc1cc(C2c3cc4c(cc3[C@@H](Nc3cccc(C(C)=O)c3)C3COC(=O)[C@H]23)OCO4)cc(OC)c1O (stereo partly specified)', 'active'),
  ('COC(=O)C(=C/c1ccc(OC)cc1)/C(C(=O)O)=C(/C)c1ccccc1', 'inactive');

Given `Oc1c2cc(Br)cc1CCc1cc(Br)cc(c1O)CC2` , state the outcome it received in this test.
inactive

// outcome(item) with item = Cc1cccc(C2ON=C(c3ccccc3)N2C23CC4CC(CC(C4)C2)C3)c1 (stereo unspecified)
inactive

Could you check what this test reported for O=C(NC(c1ccccc1)C(O)C(=O)OCc1ccc2c(c1)C(=O)c1ccccc1C2=O)c1ccccc1 (stereo unspecified) ?
inactive

// param item: O=C1c2c(Br)sc(Br)c2[C@@H](NC(=O)C(F)(F)F)C1Br (stereo partly specified) ; yields the recorded call
inactive

Called result for `C=C(c1ccccc1N)[C@@]1(O)C[C@H](/C(=C\C)CO)C[C@@H]1NCc1ccccc1`
inactive

Which outcome was assigned to Cc1ccccc1NC(=O)C(=O)C(C#N)c1ccc(Cl)cc1 (stereo unspecified) in this test?
inactive

###

# Tested on: SW-620
# test summary: NCI tumour cell line growth inhibition, 48 h
Active and inactive are the calls of the source. Cut-off read from the data, not from the text of the source: active = GI50 up to about 1.1 µM and inactive = higher.
Form field: GI50 (one value per entry).

Recorded GI50 for `CC(C)[Si](OC1=C(C(=O)Nc2ccccc2Cl)CCCCC1)(C(C)C)C(C)C` with SW-620, please?
> 100 µM (inactive)

Param readout = GI50; param system = SW-620; param query = `CCN(CC)CCC(=O)c1ccc(Sc2ccc(F)cc2)cc1` ; response: value
19.9 µM (inactive)

// lookup GI50 | system=SW-620 | key= `CSc1nc2ccccc2c(=O)n1/N=C1\C(=O)N(CN2CCOCC2)c2ccc(Cl)cc21`
17.6 µM (inactive)

State its GI50 on SW-620: O=C1/C(=C\c2cccc(Oc3ccccc3)c2)S(=O)(=O)C(c2ccccc2)N1Cc1ccccc1 (centres undefined)
40.4 µM (inactive)

Request - read-out GI50 | tested on SW-620 | compound O=C1C2C3C=C4c5ccccc5N(c5ccccc5)C4([C@@H]2C(=O)N1c1ccc(F)cc1)[C@H]1C(=O)N(c2ccc(F)cc2)C(=O)[C@@H]31 (some centres undefined)
> 100 µM (inactive)

Which GI50 is reported with SW-620 for this entry: CCOC(=O)CCC(C(=O)OCC)n1nnc2cc(Nc3c(C)[n+]([O-])c4cc(Cl)ccc4[n+]3[O-])ccc21 (centres undefined) ?
88.7 µM (inactive)

###

# Test system: A498
# test summary: NCI tumour cell line growth inhibition, 48 h
The source made the active and inactive calls. Cut-off read from the data, not from the text of the source: active = GI50 up to about 1.1 µM and inactive = higher.
The reply should be one of these categories: yes (active), no (inactive)

INSERT INTO results (compound, target_or_system, class_label) VALUES
  ('CCCCCCCCCCCC1=C(O)C(=O)C=C(O)C1=O', 'A498', 'no'),
  ('CCOC(=O)c1ccc(N[C@@H]2c3cc4c(cc3C(c3cc(OC)c(O)c(OC)c3)[C@H]3C(=O)OCC32)OCO4)cc1 (some centres not stated)', 'A498', 'yes'),
  ('COc1ccc(C(=O)/C=C/c2ccc(OCC#N)cc2)cc1', 'A498', 'no'),
  ('Cc1ccc(S(=O)(=O)N/N=C2/CC3CCC4CC2CC34)cc1 (configuration not stated)', 'A498', 'no'),
  ('COc1ccccc1C1=C2C(=O)N(C)C(c3ccccc3OC)=C2C(=O)N1C', 'A498', 'no');

State the result this test recorded for `COc1ccc(-c2c(N)n(-c3cc(OC)cc(OC)c3)c(=O)c3cc([N+](=O)[O-])ccc23)cc1` .
no

Would you mind telling me which call this test gave `CN(C)c1n/c(=N/c2cccc(Cl)c2)ss1` ?
no

// outcome(item) with item = `O=C(O)c1ccc(Nc2ccnc3cc(Cl)ccc23)cc1O`
no

State the result this test recorded for CN(C)N1C(=O)c2ccccc2NC1c1ccccc1 (configuration not stated) .
no

###

# System: SF-268
# test summary: NCI tumour cell line growth inhibition, 48 h
Active and inactive are the calls of the source. Cut-off read from the data, not from the text of the source: active = GI50 up to about 1.1 µM and inactive = higher.
The entries below are paired with their reported GI50.

A selection of reference data follows.
INSERT INTO results (molecule, measured_value) VALUES
  ('CCc1nc2ccc(C(F)(F)F)cc2[nH]c1=O', '> 100 µM (inactive)'),
  ('Clc1ccc(Cc2nc3cc4ccccc4cc3[nH]2)cc1Cl', '15.9 µM (inactive)'),
  ('N#CC(c1ccc(Cl)cc1)c1cccc(C(C#N)c2ccc(Cl)cc2)n1 (stereo unspecified)', '27 µM (inactive)'),
  ('CCNC(=S)Nc1c(C#N)c2n(c1C(=O)OCC)CCCCC2', '62.7 µM (inactive)');

Find the recorded GI50 belonging to CCO/C=C1\N=C(C(Cl)c2ccccc2)OC1=O (stereo unspecified) and report it.
> 100 µM (inactive)

Give its GI50 value. Item: CC(C)CC1c2[nH]c3ccccc3c2C[C@H]2C(=O)NC(CCCCNC(=O)OC(C)(C)C)C(=O)N12 (stereo partly specified)
21.4 µM (inactive)

###

Entries and their measured GI50 follow.
# System: HCT-15

Study these solved cases before continuing.
INSERT INTO results (molecule, measured_value) VALUES
  ('O=C(O)CCNS(=O)(=O)c1ccc([N+](=O)[O-])cc1', '> 100 µM'),
  ('N#C/C(=C\c1cccc(O)c1O)C(N)=O', '57.8 µM'),
  ('OC12CC3c4ccccc4NC3C3Oc4cccc5c4C31CCN(CC1CC1)C2C5 (stereo unspecified)', '17.9 µM'),
  ('CN(C)c1ccc([S+]([O-])Nc2ccccc2)cc1 (stereo unspecified)', '11.6 µM'),
  ('CC1=C(C#N)C(N)=C2C(C)=C(C#N)C(N)=C12', '> 100 µM');

Now for a further molecule.
// map COP(=O)(OC)C(Cc1cn(C(C)=O)c2ccccc12)C(=O)O (stereo unspecified) to recorded GI50 (system: HCT-15)
> 100 µM

###

# Test system: KM12
# test summary: NCI tumour cell line growth inhibition, 48 h
The source made the active and inactive calls. Cut-off read from the data, not from the text of the source: active = GI50 up to about 1.1 µM and inactive = higher.
measurement kind: GI50

INSERT INTO results (compound, measurement_kind, measured_value) VALUES
  ('Cc1ccc(/N=N/C(=N/NC(=O)c2cc(Cl)ccc2O)c2ccc(N(CCC#N)CCC#N)cc2C)cc1', 'GI50', '18.1 µM (inactive)');

Using the record for `CC1(C)C(=NN=C(N)N)C(C)(C)C1=NN=C(N)N` , report its GI50.
> 100 µM (inactive)

Request the reported GI50 associated with `C/C(=C/c1ccccc1)CN(C(=O)/C=C\Sc1ccccc1)C(C)(C)C`
> 100 µM (inactive)

Which value of GI50 has been reported for `Cc1cc(S(=O)(=O)Nc2nnc3c4ccccc4cnn23)c(S)cc1Cl` in the records?
31.7 µM (inactive)

For `C[n+]1c(-c2ccc(NC(=O)c3ccc(C(=O)Nc4ccc(-c5cn6ccccc6[n+]5C)cc4)cc3)cc2)cn2ccccc21` , what is its reported GI50?
> 82.6 µM (inactive)

Report GI50 for `C[Si](C)(C)c1ccc(-c2c3ccc(-c4cc(Br)cc(Br)c4)nc3nc3nc(-c4cc(Br)cc(Br)c4)ccc23)cc1` please.
> 100 µM (inactive)

Looking for the measured GI50 of `O=C(O)CSc1nnc(Cc2ccccc2)[nH]1` , can you help?
> 100 µM (inactive)

Quick one: GI50 of `CCn1ncc2c1nc(-c1ccccc1)c[n+]2[O-]` ?
> 100 µM (inactive)

Using the record for `Cc1cccc(/C=N/NC(=S)Nc2ccc(Cl)cc2)n1` , report its GI50.
0.977 µM (active)

Returns the measured GI50 for the input compound. Input: `C=C1[C@H](OC(=O)C(C)C)[C@@H](OC(C)=O)[C@@H](OC(C)=O)C(C)(C)[C@@H]2O[C@H]2[C@@H](C)C(=O)[C@@]2(OC(C)=O)C[C@@](C)(OC(C)=O)[C@H](OC(C)=O)[C@@H]2[C@H]1OC(C)=O`
> 100 µM (inactive)

# query: GI50 of entry OC1(c2ccccc2)c2ccccc2N=C2NCCN21 (configuration not stated)
> 100 µM (inactive)

Item CCC(C)C(C(=O)N/N=C1/SCC(=O)N1c1ccccc1)C(=O)N/N=C1/SCC(=O)N1c1ccccc1 (configuration not stated) has what recorded GI50?
27.5 µM (inactive)

Name the reported GI50 value associated with the compound `Cc1cccc(NS(=O)(=O)c2ccc(/N=N/c3c(O)c(C(=O)O)cc4ccccc34)cc2)n1`
> 100 µM (inactive)

Suppose we examine the compound C=C1CC2OC(=O)C(=C)C2C(O)C2C(=C)CCC12 (configuration not stated) ; what GI50 value has been reported?
10.8 µM (inactive)

What measured GI50 goes with COc1ccc(C2OC(=O)c3c2ccc2ccccc32)c(C)c1 (configuration not stated) ?
2.38 µM (inactive)

Report GI50 for `COc1ccc(-c2cc3c(c4cc(OC)ccc24)C(=O)OC3=O)cc1` please.
> 100 µM (inactive)

# get_value(readout='GI50', item= `Cc1cc(N(CCC#N)CCC#N)ccc1/C=N\c1ccc(C(=O)NN2C(=O)/C(=C/c3ccc(N(CCC#N)CCC#N)cc3)N=C2c2cc([N+](=O)[O-])ccc2Cl)cc1` )
> 100 µM (inactive)
